Reported IC50 values for a set of molecules
tested on: MS751 cells; assay: MTT cell proliferation assay, MS751 cells; format: cell-based; conditions: MS751 cells (human cervix squamous cell carcinoma metastasis); incubation approximately 64-72 hours; read-out: MTT Assay IC50 MS 751
reported.endpoint: IC50

>>> measured_value("Nc1ccc(/C=C/C(=O)NCc2nc3cc(-c4ccc(C(=O)N5CCC(F)(F)CC5)cn4)cc(C(F)(F)F)c3[nH]2)cn1 [compound 530]")
"> 10 µM"
>>> measured_value("Nc1ccc(/C=C/C(=O)NCc2cc3cc(-c4ccc(C(=O)N5CC6(C5)CC(F)(F)C6)cn4)cc(C(F)(F)F)c3s2)cn1 [compound 515]")
"< 1 µM"
>>> measured_value("Nc1ccc(/C=C/C(=O)NCc2cc3cc(-c4ccc(C(=O)N5CCC(F)CC5)cc4)cc(C(F)(F)F)c3s2)cn1 [compound 529]")
"> 10 µM"
>>> measured_value("Nc1ccc(/C=C/C(=O)NCc2cc3cc(-c4ccc(C(=O)N5CCC(F)(F)CC5)cn4)cc(C(F)(F)F)c3[nH]2)cn1 [compound 501]")
"> 10 µM"
>>> measured_value("Nc1ccc(/C=C/C(=O)NCc2cc3cc(-c4ccc(C(=O)N5CCC(F)(F)CC5)cn4)cc(C(F)(F)F)c3s2)cn1 [compound 503]")
"1 to 5 µM"
>>> measured_value("CC1(O)CCN(C(=O)c2ccc(-c3cc(C(F)(F)F)c4sc(CNC(=O)/C=C/c5ccc(N)nc5)cc4c3)nc2)CC1 [compound 516]")
"1 to 5 µM"

====

system: Z138 cells; assay: MTT cell proliferation assay, Z138 cells; assay type: cell-based; details: Homo sapiens, Z-138; Z138 cells (mantle cell lymphoma line); incubation approximately 64-72 hours
Reported IC50 values for a set of compounds
reported.endpoint: IC50

>>> measured_value("CC1(C)CN(C(=O)c2ccc(-c3cc(C(F)(F)F)c4sc(CNC(=O)/C=C/c5ccc(N)nc5)cc4c3)nc2)CCO1")
"< 1000 nM"
>>> measured_value("Cn1c(CNC(=O)/C=C/c2ccc(N)nc2)nc2c(C(F)(F)F)cc(-c3ccc(C(=O)N4CCC(F)(F)CC4)cn3)cc21")
"> 10000 nM"
>>> measured_value("Nc1ccc(/C=C/C(=O)NCc2cc3cc(-c4ccc(C(=O)N5CCC(O)(C(F)(F)F)CC5)cc4)cc(C(F)(F)F)c3s2)cn1")
"1000 to 5000 nM"

====

system: MS751 cells; assay: MTT cell proliferation assay, MS751 cells; assay type: cell-based; conditions: MS751 cells (human cervix squamous cell carcinoma metastasis); incubation approximately 64-72 hours; read-out: MTT Assay IC50 MS 751
pIC50: −log10 of the molar value.
Reported pIC50 values for a set of compounds
reported.endpoint: pIC50

>>> measured_value("CC1(F)CCN(C(=O)c2ccc(-c3cc(C(F)(F)F)c4sc(CNC(=O)/C=C/c5ccc(N)nc5)cc4c3)cc2)C1 (stereo not drawn)")
"5.00 to 5.30"
>>> measured_value("CC1(C)CN(C(=O)c2ccc(-c3cc(C(F)(F)F)c4sc(CNC(=O)/C=C/c5ccc(N)nc5)cc4c3)cc2)CCO1")
"5.30 to 6.00"
>>> measured_value("Nc1ccc(/C=C/C(=O)NCc2cc3cc(-c4ccc(C(=O)N5CC(F)(F)C5)cc4)cc(C(F)(F)F)c3s2)cn1")
"< 5.00"
>>> measured_value("CC1(F)CCN(C(=O)c2ccc(-c3cc(C(F)(F)F)c4sc(CNC(=O)/C=C/c5ccc(N)nc5)cc4c3)nc2)C1 (stereo not drawn)")
"5.30 to 6.00"
>>> measured_value("Nc1ccc(/C=C/C(=O)NCc2cc3cc(-c4ccc(C(=O)N5CCC(F)(F)CC5)cc4)cc(-c4ccc(F)cc4)c3s2)cn1")
"> 6.00"
>>> measured_value("Nc1ccc(/C=C/C(=O)NCc2cc3cc(-c4ccc(C(=S)N5CCC(F)(F)CC5)cn4)cc(C(F)(F)F)c3s2)cn1")
"> 6.00"
>>> measured_value("Nc1ccc(/C=C/C(=O)NCc2cc3cc(-c4ccc(C(=O)N5CC[C@H](F)C5)cn4)cc(C(F)(F)F)c3s2)cn1")
"5.30 to 6.00"
>>> measured_value("CC1(C)COCCN1C(=O)c1ccc(-c2cc(C(F)(F)F)c3sc(CNC(=O)/C=C/c4ccc(N)nc4)cc3c2)nc1")
"5.30 to 6.00"
>>> measured_value("Nc1ccc(/C=C/C(=O)NCc2cc3cc(-c4ccc(C(=O)N5CC6(C5)CC(F)(F)C6)cc4)cc(C(F)(F)F)c3s2)cn1")
"5.30 to 6.00"
>>> measured_value("Nc1ccc(/C=C/C(=O)NCc2cc3cc(-c4ccc(C(=O)N5CCC(O)(C(F)(F)F)CC5)cc4)cc(C(F)(F)F)c3s2)cn1")
"5.30 to 6.00"
>>> measured_value("Cn1c(CNC(=O)/C=C/c2ccc(N)nc2)nc2c(C(F)(F)F)cc(-c3ccc(C(=O)N4CCC(F)(F)CC4)cn3)cc21")
"< 5.00"
>>> measured_value("Nc1ccc(/C=C/C(=O)NCc2cc3cc(-c4ccc(C(=O)N5CCC(F)(F)C5)cn4)cc(C(F)(F)F)c3s2)cn1")
"5.30 to 6.00"
>>> measured_value("Cn1c(CNC(=O)/C=C/c2ccc(N)nc2)cc2cc(-c3ccc(C(=O)N4CCC(F)(F)CC4)cn3)cc(C(F)(F)F)c21")
"< 5.00"
>>> measured_value("CC1(O)CCN(C(=O)c2ccc(-c3cc(C(F)(F)F)c4sc(CNC(=O)/C=C/c5ccc(N)nc5)cc4c3)cc2)CC1")
"5.30 to 6.00"
>>> measured_value("Nc1ccc(/C=C/C(=O)NCc2cc3cc(-c4ccc(C(=O)N5CCC(O)(C(F)(F)F)CC5)cn4)cc(C(F)(F)F)c3s2)cn1")
"5.30 to 6.00"
